# target_desc: Sigma intracellular receptor 2 (Rattus norvegicus, UniProt Q5U3Y7)
# Sequence (Q5U3Y7 whole entry): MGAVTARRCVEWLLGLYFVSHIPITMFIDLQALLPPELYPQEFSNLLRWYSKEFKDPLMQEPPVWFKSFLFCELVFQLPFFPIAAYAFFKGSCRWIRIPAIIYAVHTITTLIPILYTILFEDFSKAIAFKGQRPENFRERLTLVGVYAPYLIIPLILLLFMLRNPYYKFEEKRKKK
# assay_protocol: Displacement of [3H]-di-o-tolylguanidine from sigma2 receptor in rat liver membrane incubated for 120 mins measured for 5 mins by scintillation counting method
pKi: −log10 of the molar value.
quantity: pKi

{"columns": ["compound", "pKi"],
 "data": [
  ["c1ccc(CN(CCC2CC3OC(Cc4ccccc43)O2)Cc2ccccc2)cc1 (racemic; 22b)", "< 6.00"],
  ["NCCC1CC2OC(Cc3ccccc32)O1 (mixture of isomers)", "< 6.00"],
  ["CN(C)CCC1CC2OC(Cc3ccccc32)O1 (racemic)", "< 6.00"]
]}

Return reported pKi values for all items listed beneath this line.
1. c1ccc(CN(CCC2CC3OC(Cc4ccccc43)O2)Cc2ccccc2)cc1 (racemic; 22a)
2. NCCC1CC2OC(Cc3ccccc32)O1 (racemic)
3. c1ccc(CNCCC2CC3OC(Cc4ccccc43)O2)cc1 (racemic; 21a)
4. c1ccc(CNCCC2CC3OC(Cc4ccccc43)O2)cc1 (racemic; 21b)

Reply:
1: < 6.00; 2: < 6.00; 3: < 6.00; 4: 6.82

====

# target_desc: Sigma non-opioid intracellular receptor 1 (Cavia porcellus, UniProt Q60492)
# Sequence (Q60492 whole entry): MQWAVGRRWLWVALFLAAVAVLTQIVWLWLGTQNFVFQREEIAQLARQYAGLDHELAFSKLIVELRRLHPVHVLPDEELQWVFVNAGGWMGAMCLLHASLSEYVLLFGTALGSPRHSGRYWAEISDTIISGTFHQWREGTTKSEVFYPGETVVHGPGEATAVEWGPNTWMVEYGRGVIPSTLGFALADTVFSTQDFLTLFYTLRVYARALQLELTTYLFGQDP
# assay_protocol: Displacement of [3H]-(+)-pentazocine from sigma1 receptor in guinea pig brain cortex membrane incubated for 120 mins measured for 5 mins by scintillation counting method
quantity: Ki (µM)
Give bare numbers, in µM.

Past entries and their recorded results:
{"columns": ["compound", "quantity", "endpoint_unit", "meas_value"],
 "data": [
  ["c1ccc(CN(CCC2CC3OC(Cc4ccccc43)O2)Cc2ccccc2)cc1 (racemic; 22b)", "Ki", "µM", 0.782],
  ["c1ccc(CNCCC2CC3OC(Cc4ccccc43)O2)cc1 (racemic; 21a)", "Ki", "µM", 0.03],
  ["c1ccc(CNCCC2CC3OC(Cc4ccccc43)O2)cc1 (racemic; 21b)", "Ki", "µM", 0.0059]
]}

Kindly review the next compound as well.
Measured Ki of c1ccc(CN(CCC2CC3OC(Cc4ccccc43)O2)Cc2ccccc2)cc1 (racemic; 22a) : 1.4

====

Hi there, I'd appreciate the recorded Ki for every entry that follows.
# target_desc: Sigma non-opioid intracellular receptor 1 (Cavia porcellus)
# assay_protocol: Displacement of [3H]-(+)-pentazocine from sigma1 receptor in guinea pig brain cortex membrane incubated for 120 mins measured for 5 mins by scintillation counting method

Past entries and their recorded results:
{"columns": ["molecule", "target_desc", "Ki"],
 "data": [
  ["NCCC1CC2OC(Cc3ccccc32)O1 (mixture of isomers)", "Sigma non-opioid intracellular receptor 1 (Cavia porcellus)", "> 1000 nM"],
  ["CN(C)CCC1CC2OC(Cc3ccccc32)O1 (racemic)", "Sigma non-opioid intracellular receptor 1 (Cavia porcellus)", "> 1000 nM"]
]}

Measured Ki of NCCC1CC2OC(Cc3ccccc32)O1 (racemic) : > 1000 nM
